Molecular target: human anti-Galα(1,3)Gal IgG antibodies
Assay: Elisa: inhibition of anti-Galα(1,3)Gal IgG binding to Galα(1,3)Gal-BSA
Details: Table 3; anti-Galα(1,3)Gal antibody (IgG) 87 μgs/ml; read-out: I50 Anti-Galα(1,3)Gal
property: IC50 (µM)

1. OCC1OC(OC2C(O)C(O)OC(CO)C2O)C(O)C(O)C1O (stereo not shown) ... 30

* * *

This section presents sequences with their documented pIC50 values.
Biological target: human anti-Galα(1,3)Gal IgG antibodies
Assay: Elisa: inhibition of anti-Galα(1,3)Gal IgG binding to Galα(1,3)Gal-BSA
Settings: Table 3; anti-Galα(1,3)Gal antibody (IgG) 87 μgs/ml; read-out: I50 Anti-Galα(1,3)Gal
pIC50: −log10 of the molar value. No end group written: not given here.
property: pIC50

1) TSSASTGHATPLPVTP [Muc pep 11] ... 2.60
2) CPAHGVTSAPDTRPAPGSTAP [Muc pep 1] ... 2.60
3) APDTRPAPGSTAPPAH [Muc pep 4] ... 2.30
